Cited source: ChEMBL document CHEMBL1773042

Hi there, I'd appreciate the recorded Activity for every entry that follows.
- test: Cell cycle arrest in rat HSC-T6 cells assessed as inhibition of DNA synthesis at sub-G1 phase at 25 uM after 48 hrs
- Format: functional, cell-based
- Set-up: scale not given: the % may be the effect or the level left
Numbers only, in %.

Examples with their reported Activity follow.
C[C@H]1[C@H](C)CC[C@]2(C(=O)O)CC[C@]3(C)C(=CC[C@@H]4[C@@]5(C)C[C@@H](O)[C@H](O)C(C)(C)[C@@H]5CC[C@]43C)[C@H]12: 57.7
C[C@H]1[C@H](C)CC[C@]2(C(=O)O)CC[C@]3(C)C(=CC[C@@H]4[C@@]5(C)CC[C@H](O)C(C)(C)[C@@H]5CC[C@]43C)[C@H]12: 17
O=C(O[C@@H]1Cc2c(O)cc(O)cc2O[C@@H]1c1cc(O)c(O)c(O)c1)c1cc(O)c(O)c(O)c1 [EPIGALOCATECHIN GALLATE]: 4.5
CC1(C)C=C2[C@H]3CC[C@@H]4[C@@]5(C)C(=O)C[C@H](O)C(C)(C)[C@@H]5CC[C@@]4(C)[C@]3(C)CC[C@@]2(C)CC1: 5

Next, consider the following compound.
Query :: Please look up its Activity: `C=C(C)[C@@H]1CC[C@]2(C)CC[C@]3(C)[C@H](CC[C@@H]4[C@@]5(C)C[C@@H](O)[C@H](O)C(C)(C)[C@@H]5CC[C@]43C)[C@@H]12`
Result :: 5.4
